The measurements presented in this section are drawn from BindingDB's records for doi:10.1006/frne.1999.0183.

Record set of Ki for target or system UniProt P31391.
Sequence (P31391 whole entry): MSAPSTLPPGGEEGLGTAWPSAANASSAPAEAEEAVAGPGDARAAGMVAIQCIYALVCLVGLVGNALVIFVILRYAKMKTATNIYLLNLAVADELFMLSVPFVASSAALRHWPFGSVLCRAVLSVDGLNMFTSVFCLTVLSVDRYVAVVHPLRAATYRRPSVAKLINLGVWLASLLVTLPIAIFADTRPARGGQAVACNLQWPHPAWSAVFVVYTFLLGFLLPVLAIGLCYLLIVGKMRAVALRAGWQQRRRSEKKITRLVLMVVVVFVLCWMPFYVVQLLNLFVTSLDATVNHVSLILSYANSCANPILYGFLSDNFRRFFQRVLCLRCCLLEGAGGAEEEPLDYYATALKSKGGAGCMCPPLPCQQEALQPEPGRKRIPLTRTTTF
Starred links: 1 amine or outer side, 2 acyl side, 3 side chain; linkers in the order of their positions; H or OH if unused. Non-standard residues stand in square brackets, D forms with d. Residues, ends and D or L forms follow the SMILES beside them. *: point of attachment. pNA = O=[N+]([O-])c1ccc(N*)cc1; Nle = CCCC[CH](N)C(=O)O; CO = O=C([*:1])[*:2]
Numbers only, in nM.

Guide cases for Ki, answers given:
Compound: CC(CCN)CC(C)(C)CNC(=O)[C@@H](Cc1cccc2ccccc12)NC(=O)N(CCc1ccccc1)CCc1ccccn1 (stereo not given in full)
Tested System: UniProt P31391
Unit Text: nM
Ki: 170
//
Compound: CC(c1c[nH]c2ccccc12)C(NC(=O)N1CCC(n2c(=O)[nH]c3ccccc32)CC1)C(=O)NCC1CCCC(CN)C1 (stereo not given)
Tested System: UniProt P31391
Unit Text: nM
Ki: 310
//
Compound: CCCCC(NC(=O)NC(Cc1ccccc1)C(=O)Nc1ccc([N+](=O)[O-])cc1)C(=O)NC(CCCCN)C(=O)OC (stereo not given) [CAS_5311373] ({pNA-Phe-CO}-[Nle]-Lys-OMe; configuration not given here)
Tested System: UniProt P31391
Unit Text: nM
Ki: 8650

// input: 2 compounds below; output: Ki for each
1. CSCC[C@H](NC(=O)[C@H](CCCN=C(N)N)NC(=O)[C@@H](N)CC(=O)O)C(=O)N1CCC[C@H]1C(=O)N[C@H]1CSSC[C@@H](C(=O)N[C@@H](CCCCN)C(=O)O)NC(=O)[C@H](CO)NC(=O)[C@H](CO)NC(=O)[C@H](Cc2ccccc2)NC(=O)[C@H]([C@@H](C)O)NC(=O)[C@H](CCCCN)NC(=O)[C@H](Cc2c[nH]c3ccccc23)NC(=O)[C@H](Cc2ccccc2)NC(=O)[C@H](Cc2ccccc2)NC(=O)[C@H](CC(N)=O)NC(=O)[C@H](CCCN=C(N)N)NC1=O
2. CC(C)NCc1ccc(C[C@@H]2NC(=O)[C@@H](Cc3c[nH]c4ccccc34)NC(=O)[C@H](Cc3ccccc3)NC(=O)[C@H](Cc3ccccc3)NC(=O)[C@H](CCCCN)NC(=O)[C@@H](N)CSSC[C@@H](C(=O)O)NC(=O)[C@H](CO)NC(=O)[C@H]([C@@H](C)O)NC(=O)[C@H](Cc3ccccc3)NC(=O)[C@H]([C@@H](C)O)NC2=O)cc1 [CH-275] (HELM PEPTIDE1{C.K.F.F.[dW].[CC(C)NCc1ccc(C[C@H](N[*:1])C(=O)[*:2])cc1].T.F.T.S.C}$PEPTIDE1,PEPTIDE1,1:R3-11:R3$$$V2.0)

Output:
[0.5, 4.3]

----------
pKi, Somatostatin receptor type 3 (Homo sapiens, UniProt P32745), per-entry values.
Starred links: 1 amine or outer side, 2 acyl side, 3 side chain; linkers in the order of their positions; H or OH if unused. Non-standard residues stand in square brackets, D forms with d. Residues, ends and D or L forms follow the SMILES beside them. *: point of attachment. pNA = O=[N+]([O-])c1ccc(N*)cc1; Nle = CCCC[CH](N)C(=O)O; CO = O=C([*:1])[*:2]
Give bare numbers, as −log10 of the molar value.

Reference set, count: 4
Compound: COC(=O)C(CCCNC(=N)N)NC(=O)CCCc1c(-c2ccccc2)[nH]c2c(F)cc(F)cc12 (stereo not given)
pKi: 5.89
--
Compound: CCCCC(NC(=O)NC(Cc1ccccc1)C(=O)Nc1ccc([N+](=O)[O-])cc1)C(=O)NC(CCCCN)C(=O)OC (stereo not given) [CAS_5311373] ({pNA-Phe-CO}-[Nle]-Lys-OMe; configuration not given here)
pKi: 7.62
--
Compound: CC(C)NCc1ccc(C[C@@H]2NC(=O)[C@@H](Cc3c[nH]c4ccccc34)NC(=O)[C@H](Cc3ccccc3)NC(=O)[C@H](Cc3ccccc3)NC(=O)[C@H](CCCCN)NC(=O)[C@@H](N)CSSC[C@@H](C(=O)O)NC(=O)[C@H](CO)NC(=O)[C@H]([C@@H](C)O)NC(=O)[C@H](Cc3ccccc3)NC(=O)[C@H]([C@@H](C)O)NC2=O)cc1 [CH-275] (HELM PEPTIDE1{C.K.F.F.[dW].[CC(C)NCc1ccc(C[C@H](N[*:1])C(=O)[*:2])cc1].T.F.T.S.C}$PEPTIDE1,PEPTIDE1,1:R3-11:R3$$$V2.0)
pKi: 6.00
--
Compound: CC(CCN)CC(C)(C)CNC(=O)[C@@H](Cc1cccc2ccccc12)NC(=O)N(CCc1ccccc1)CCc1ccccn1 (stereo not given in full)
pKi: 5.65

Alright, here's another compound for you.
Input: Let me know recorded pKi for CC(C)[C@@H]1NC(=O)[C@H](CCCCN)NC(=O)[C@@H](Cc2c[nH]c3ccccc23)NC(=O)[C@H](Cc2ccc(O)cc2)NC(=O)[C@H](C)N(C)C(=O)[C@H](Cc2ccccc2)NC1=O [seglitide] , thanks.
Output: 7.57

----------
In what follows, each item is paired with its Ki for Somatostatin receptor type 1 (Homo sapiens, UniProt P30872).
Starred links: 1 amine or outer side, 2 acyl side, 3 side chain; linkers in the order of their positions; H or OH if unused. Non-standard residues stand in square brackets, D forms with d. Residues, ends and D or L forms follow the SMILES beside them. *: point of attachment. pNA = O=[N+]([O-])c1ccc(N*)cc1; Nle = CCCC[CH](N)C(=O)O; CO = O=C([*:1])[*:2]
Answers are plain numbers, in nM.

# batch size: 5; output Ki per entry
1. CC(c1c[nH]c2ccccc12)C(NC(=O)N1CCC(n2c(=O)[nH]c3ccccc32)CC1)C(=O)NCC1CCCC(CN)C1 (configuration not stated)
2. CC(C)[C@@H]1NC(=O)[C@H](CCCCN)NC(=O)[C@@H](Cc2c[nH]c3ccccc23)NC(=O)[C@H](Cc2ccc(O)cc2)NC(=O)[C@H](C)N(C)C(=O)[C@H](Cc2ccccc2)NC1=O [seglitide]
3. COC(=O)C(CCCNC(=N)N)NC(=O)CCCc1c(-c2ccccc2)[nH]c2c(F)cc(F)cc12 (configuration not stated)
4. C[C@H](N)COC(=O)[C@H](CCCCN)NC(=O)Cc1c(-c2ccc3ccccc3c2)[nH]c2c1ccc1ccccc12
5. CCCCC(NC(=O)NC(Cc1ccccc1)C(=O)Nc1ccc([N+](=O)[O-])cc1)C(=O)NC(CCCCN)C(=O)OC (configuration not stated) [CAS_5311373] ({pNA-Phe-CO}-[Nle]-Lys-OMe; configuration not given here)

Output:
1: 2760; 2: 1000; 3: 199; 4: 3.3; 5: 1260

Return reported Ki values for all items listed beneath this line.
1. CSCC[C@H](NC(=O)[C@H](CCCN=C(N)N)NC(=O)[C@@H](N)CC(=O)O)C(=O)N1CCC[C@H]1C(=O)N[C@H]1CSSC[C@@H](C(=O)N[C@@H](CCCCN)C(=O)O)NC(=O)[C@H](CO)NC(=O)[C@H](CO)NC(=O)[C@H](Cc2ccccc2)NC(=O)[C@H]([C@@H](C)O)NC(=O)[C@H](CCCCN)NC(=O)[C@H](Cc2c[nH]c3ccccc23)NC(=O)[C@H](Cc2ccccc2)NC(=O)[C@H](Cc2ccccc2)NC(=O)[C@H](CC(N)=O)NC(=O)[C@H](CCCN=C(N)N)NC1=O
2. CC(C)NCc1ccc(C[C@@H]2NC(=O)[C@@H](Cc3c[nH]c4ccccc34)NC(=O)[C@H](Cc3ccccc3)NC(=O)[C@H](Cc3ccccc3)NC(=O)[C@H](CCCCN)NC(=O)[C@@H](N)CSSC[C@@H](C(=O)O)NC(=O)[C@H](CO)NC(=O)[C@H]([C@@H](C)O)NC(=O)[C@H](Cc3ccccc3)NC(=O)[C@H]([C@@H](C)O)NC2=O)cc1 [CH-275] (HELM PEPTIDE1{C.K.F.F.[dW].[CC(C)NCc1ccc(C[C@H](N[*:1])C(=O)[*:2])cc1].T.F.T.S.C}$PEPTIDE1,PEPTIDE1,1:R3-11:R3$$$V2.0)

Output:
1. 7
2. 3.2

----------
Tested System: Somatostatin receptor type 2 (Homo sapiens)
Sequence (P30874 whole entry): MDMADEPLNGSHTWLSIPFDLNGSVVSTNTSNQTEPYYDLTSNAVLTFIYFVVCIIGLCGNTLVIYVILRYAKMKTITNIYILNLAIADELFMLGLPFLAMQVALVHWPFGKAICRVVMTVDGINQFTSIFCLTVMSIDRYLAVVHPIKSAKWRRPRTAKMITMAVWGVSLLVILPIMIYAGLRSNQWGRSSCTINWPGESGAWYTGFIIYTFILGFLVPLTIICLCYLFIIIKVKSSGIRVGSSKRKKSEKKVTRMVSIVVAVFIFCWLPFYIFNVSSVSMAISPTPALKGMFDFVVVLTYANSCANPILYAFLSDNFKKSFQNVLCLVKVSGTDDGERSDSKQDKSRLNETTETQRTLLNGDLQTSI
Please go through the items and note down their Ki.
Numbers only, in µM.

Compound: CC(CCN)CC(C)(C)CNC(=O)[C@@H](Cc1cccc2ccccc12)NC(=O)N(CCc1ccccc1)CCc1ccccn1 (some centres undefined)
Ki (µM): 1.87

Compound: COC(=O)C(CCCNC(=N)N)NC(=O)CCCc1c(-c2ccccc2)[nH]c2c(F)cc(F)cc12 (centres undefined)
Ki (µM): 4.72

We now examine a further compound.
Input: Note down Ki recorded for C[C@H](N)COC(=O)[C@H](CCCCN)NC(=O)Cc1c(-c2ccc3ccccc3c2)[nH]c2c1ccc1ccccc12
Output: 0.052
